Tested on: SK-MEL-5 melanoma
Experiment: NCI-60 one-dose screen, 48 h (100 = growth as untreated, 0 = no growth, -100 = all killed)
Conditions: 10 µM unless noted
Compounds without any hit were thinned out: in the full panel of roughly 83,000, 20% have a hit.
result_type: growth (%)
One number for each entry, in %.

# molecule, target_under_test, uom, observed_value
records = [
    ("O=C(/C=C/c1cccc([N+](=O)[O-])c1)c1ccc(Nc2nc(N3CCCCC3)nc(N3CCCCC3)n2)cc1", "SK-MEL-5 melanoma", "%", 97.6),
    ("COc1ccc2[nH]c(C(=O)OCc3ccc4cccc(O)c4n3)cc2c1", "SK-MEL-5 melanoma", "%", -56.9),
    ("COc1cccc(NC(=O)c2c(-c3ccccc3)c(-c3ccccc3)n[nH]c2=O)c1", "SK-MEL-5 melanoma", "%", 99.4),
    ("CCCN(CCC)CC(O)COc1ccccc1C(=O)Nc1ccccc1 (stereo not given)", "SK-MEL-5 melanoma", "%", 53.3),
    ("COc1ccc(/C(=C\\c2cc(OC)c(OC)c(OC)c2)C(=O)N2CCCNCC2)cc1", "SK-MEL-5 melanoma", "%", 99.7),
]

Quick batch: growth for everything below.
1. COc1ccccc1NC(=O)OCC12COCN1COC2
2. CC(C)COC(=O)NC(C)(C)C
3. CCCCCCCCCC1=NC(C)(C)CN1C(C)(C)CO
4. Cc1cccc(C(=O)O)n1
5. C#CC[C@@H]1C[C@]2(C)[C@H]3CC=C4[C@H]5[C@@H](C)[C@H](C)CC[C@]5(C(=O)NCCCN5CCN(CCCN)CC5)CC[C@@]4(C)[C@]3(C)CC[C@H]2C(C)(C)[C@H]1OC(C)=O

Result:
1. 99.5
2. 109
3. 84
4. 98.3
5. -7.08

----------
Test system: OVCAR-3 ovarian
Test: NCI-60 one-dose screen, 48 h
Conditions: 10 µM unless noted
The panel holds about 83,000 compounds, 20% with a hit somewhere; the sample as a whole holds those more often. Active and inactive are the calls of the source. How the source made its calls: active means growth percent below 10; inactive means the rest.
Classes to choose from: 1 (yes) for active, 0 (no) for inactive

Ask: Check the results log: what was the call for CN1CCN(Cc2ccc(NC(=O)c3ccc(C#N)c(C#Cc4cnc(N)c5ncccc45)c3)cc2C(F)(F)F)CC1 ?
Result: 0 (no)

Ask: Check the results log: what was the call for O=C1c2ccccc2C2N1CCC1CCc3ccccc3N12 (configuration not stated) ?
Result: 0 (no)

Ask: Check the results log: what was the call for CCCCCCCCCCCCCCC(C(=O)OCC)C(=O)OCC ?
Result: 0 (no)

Ask: Check the results log: what was the call for O=C(/C=C/c1ccccc1)C(Br)C(Br)c1ccccc1 (configuration not stated) ?
Result: 1 (yes)

Ask: Check the results log: what was the call for CCC(=O)NC(O)C(Cl)(Cl)C(C)Cl (configuration not stated) ?
Result: 0 (no)

Ask: Check the results log: what was the call for O=C(/C=C/c1cc([N+](=O)[O-])ccc1Cl)c1ccccc1 ?
Result: 0 (no)

Ask: Check the results log: what was the call for COc1ccc(Sc2[nH]c(C=O)c3ccccc23)cc1 ?
Result: 0 (no)

Ask: Check the results log: what was the call for FC1(F)CCN(Cc2c[nH]c3cc(Cl)ccc23)C[C@H]1CCc1ccccc1 ?
Result: 0 (no)
